Target: T1, PSMA Fab (006 PSMA Fab)
T1 construct: also called Anti-PSMA Fab
Assay: phage binding ELISA; biotinylated PSMA Fab on neutravidin plate, clonal phage supernatant, anti-M13 HRP detection;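 further: wells were preincubated with blocking buffer either containing PSMA antigen or without it before crude phage supernatant was added, briefly incubated, then washed prior to detection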
Where no end group is shown, it is not given here.
Phage binding ELISA signal, Anti-PSMA Fab for assorted binders
quantity name: Phage binding ELISA signal, Anti-PSMA Fab

binder: YPSMCKPLWMCQGF [Phage-3175]
recorded number: 2.02
--
binder: MDRMCVPEWMCYVF [Phage-3173]
recorded number: 2.02
--
binder: VTRMCVPEWMCSGI [Phage-3176]
recorded number: 2.02
--
binder: ANLLCIPNWMCSGF [Phage-3172]
recorded number: 2.02
--
binder: GEVFCIPAWMCAGF (cysteine pairing not given here; also: fused to phage pIII, fusion site not given here) [Phage-3171]
recorded number: 2.02
--
binder: YMMICRPAWMCSGL [Phage-3179]
recorded number: 2.01
--
binder: MVRLCEPEWMCTGF [Phage-3184]
recorded number: 2.01
